Every entry's value here was drawn from the supplement of paper PMC10307832.

tested on: NCI-H1993; assay: relative viability (nuclei count vs DMSO), 5 days (fraction); higher = more cells survive; conditions: first compound 0.1581 µM
measuredParameter: relative viability
Answer as a number with no unit attached.

INSERT INTO results (molecule, measuredparameter, recordedvalue) VALUES
  ('Nc1ccn([C@@H]2O[C@H](CO)[C@@H](O)[C@@H]2O)c(=O)n1 [Cytarabine] + NC(=O)Nc1cc(-c2cccc(F)c2)sc1C(=O)N[C@H]1CCCNC1 [AZD7762] (partner 0.2 µM)', 'relative viability', 0.523);

Prompt line: Report relative viability for COc1cc2nccc(Oc3ccc(NC(=O)Nc4cc(C)on4)c(Cl)c3)c2cc1OC [Tivozanib] + COc1cc2c(Oc3ccc(NC(=O)C4(C(=O)Nc5ccc(F)cc5)CC4)cc3F)ccnc2cc1OCCCN1CCOCC1 [Foretinib] (partner 0.25 µM) please.
Response line: 0.733

====

Each entry below lists one item and its recorded relative viability value.
test system: HOP-62; experiment: relative viability (nuclei count vs DMSO), 5 days (fraction); higher = more cells survive; conditions: first compound 0.005 µM
Answer as a number with no unit attached.

INSERT INTO measurements (compound, recordedvalue) VALUES
  ('Nc1ccn([C@@H]2O[C@H](CO)[C@@H](O)[C@@H]2O)c(=O)n1 [Cytarabine] + CS(=O)(=O)CCNCc1ccc(-c2ccc3ncnc(Nc4ccc(OCc5cccc(F)c5)c(Cl)c4)c3c2)o1 [Lapatinib] (partner 2 µM)', 0.825);

Now examine the next entry.
Prompt line: Report relative viability for Nc1ccn([C@@H]2O[C@H](CO)[C@@H](O)[C@@H]2O)c(=O)n1 [Cytarabine] + CC1(C)CCC(c2ccc(Cl)cc2)=C(CN2CCN(c3ccc(C(=O)NS(=O)(=O)c4ccc(N[C@H](CCN5CCOCC5)CSc5ccccc5)c(S(=O)(=O)C(F)(F)F)c4)cc3)CC2)C1 [Navitoclax] (partner 0.5 µM) please.
Response line: 0.946

====

tested on: NCI-H2228; test: relative viability (nuclei count vs DMSO), 5 days (fraction); higher = more cells survive; details: first compound 0.01581 µM
measuredParameter: relative viability
Answer as a number with no unit attached.

Please review the entries below; each comes with its answer.
INSERT INTO measurements (compound, assaytarget, measuredparameter, recordedvalue) VALUES
  ('COc1cc2nccc(Oc3ccc(NC(=O)Nc4cc(C)on4)c(Cl)c3)c2cc1OC [Tivozanib] + CC(=O)Nc1cccc(-n2c(=O)n(C3CC3)c(=O)c3c(Nc4ccc(I)cc4F)n(C)c(=O)c(C)c32)c1 [Trametinib] (partner 0.02 µM)', 'NCI-H2228', 'relative viability', 0.595),
  ('COc1cc2nccc(Oc3ccc(NC(=O)Nc4cc(C)on4)c(Cl)c3)c2cc1OC [Tivozanib] + Cc1nc(NC(=O)N2CCC[C@H]2C(N)=O)sc1-c1ccnc(C(C)(C)C(F)(F)F)c1 [Alpelisib] (partner 2 µM)', 'NCI-H2228', 'relative viability', 0.81),
  ('Nc1ccn([C@@H]2O[C@H](CO)[C@@H](O)[C@@H]2O)c(=O)n1 [Cytarabine] + COc1cccc2cc(-c3nc([C@H]4CC[C@H](C(=O)O)CC4)n4ncnc(N)c34)[nH]c12 [OSI-027] (partner 0.5 µM)', 'NCI-H2228', 'relative viability', 0.209);

Now examine the next entry.
Prompt line: Report relative viability for Nc1ccn([C@@H]2O[C@H](CO)[C@@H](O)[C@@H]2O)c(=O)n1 [Cytarabine] + O=C(c1cc(Cc2n[nH]c(=O)c3ccccc23)ccc1F)N1CCN(C(=O)C2CC2)CC1 [Olaparib] (partner 8 µM) please.
Response line: 0.203

====

Each entry below lists one item and its recorded relative viability value.
tested on: NCI-H322M; assay: relative viability (nuclei count vs DMSO), 5 days (fraction); higher = more cells survive; conditions: first compound 0.1581 µM

Please review the entries below; each comes with its answer.
INSERT INTO results (compound, recordedvalue) VALUES
  ('COc1cc2nccc(Oc3ccc(NC(=O)Nc4cc(C)on4)c(Cl)c3)c2cc1OC [Tivozanib] + N=C(N)NC(=N)NCCc1ccccc1 [Phenformin] (partner 250 µM)', 0.689),
  ('Nc1ccn([C@@H]2O[C@H](CO)[C@@H](O)[C@@H]2O)c(=O)n1 [Cytarabine] + CC1(C)CCC(c2ccc(Cl)cc2)=C(CN2CCN(c3ccc(C(=O)NS(=O)(=O)c4ccc(N[C@H](CCN5CCOCC5)CSc5ccccc5)c(S(=O)(=O)C(F)(F)F)c4)cc3)CC2)C1 [Navitoclax] (partner 0.5 µM)', 0.46),
  ('COc1cc2nccc(Oc3ccc(NC(=O)Nc4cc(C)on4)c(Cl)c3)c2cc1OC [Tivozanib] + CS(=O)(=O)N1CCN(Cc2cc3nc(-c4cccc5[nH]ncc45)nc(N4CCOCC4)c3s2)CC1 [Pictilisib] (partner 1 µM)', 0.465),
  ('COc1cc2nccc(Oc3ccc(NC(=O)Nc4cc(C)on4)c(Cl)c3)c2cc1OC [Tivozanib] + Nc1ncn([C@H]2C[C@H](O)[C@@H](CO)O2)c(=O)n1 [Decitabine] (partner 2 µM)', 0.656);

Now examine the next entry.
Prompt line: Report relative viability for Nc1ccn([C@@H]2O[C@H](CO)[C@@H](O)[C@@H]2O)c(=O)n1 [Cytarabine] + N=C(N)NC(=N)NCCc1ccccc1 [Phenformin] (partner 250 µM) please.
Response line: 0.372

====

system: EKVX; assay: relative viability (nuclei count vs DMSO), 5 days (fraction); higher = more cells survive; details: first compound 0.253 µM
measuredParameter: relative viability
Answer as a number with no unit attached.

INSERT INTO measurements (compound, measuredparameter, recordedvalue) VALUES
  ('O=c1[nH]c2ccccc2n1C1CCN(CCCC(c2ccc(F)cc2)c2ccc(F)cc2)CC1 [Pimozide] + NC(=O)Nc1cc(-c2cccc(F)c2)sc1C(=O)N[C@H]1CCCNC1 [AZD7762] (partner 0.2 µM)', 'relative viability', 0.711);

Prompt line: Report relative viability for O=c1[nH]c2ccccc2n1C1CCN(CCCC(c2ccc(F)cc2)c2ccc(F)cc2)CC1 [Pimozide] + O=C(c1cc(Cc2n[nH]c(=O)c3ccccc23)ccc1F)N1CCN(C(=O)C2CC2)CC1 [Olaparib] (partner 8 µM) please.
Response line: 0.783

Prompt line: Next compound up: Cc1cnc(-c2cnc(NCCNc3ccc(C#N)cn3)nc2-c2ccc(Cl)cc2Cl)[nH]1 + CS(=O)(=O)N1CCN(Cc2cc3nc(-c4cccc5[nH]ncc45)nc(N4CCOCC4)c3s2)CC1 [Pictilisib] (partner 1 µM)
Response line: 0.394

====

tested on: NCI-H1993; assay: relative viability (nuclei count vs DMSO), 5 days (fraction); higher = more cells survive; conditions: first compound 0.4 µM
measuredParameter: relative viability

INSERT INTO results (compound, recordedvalue) VALUES
  ('Cc1sc2c(c1C)C(c1ccc(Cl)cc1)=N[C@@H](CC(=O)OC(C)(C)C)c1nnc(C)n1-2 [JQ1] + O=C(c1cc(Cc2n[nH]c(=O)c3ccccc23)ccc1F)N1CCN(C(=O)C2CC2)CC1 [Olaparib] (partner 8 µM)', 1.1);

Now examine the next entry.
Prompt line: Report relative viability for Cc1sc2c(c1C)C(c1ccc(Cl)cc1)=N[C@@H](CC(=O)OC(C)(C)C)c1nnc(C)n1-2 [JQ1] + NC(=O)Nc1cc(-c2cccc(F)c2)sc1C(=O)N[C@H]1CCCNC1 [AZD7762] (partner 0.2 µM) please.
Response line: 0.796

====

tested on: NCI-H2347; experiment: relative viability (nuclei count vs DMSO), 5 days (fraction); higher = more cells survive; settings: first compound 0.05 µM
Each entry below lists one item and its recorded relative viability value.

Please review the entries below; each comes with its answer.
INSERT INTO measurements (compound, measuredparameter, recordedvalue) VALUES
  ('COc1cc2nccc(Oc3ccc(NC(=O)Nc4cc(C)on4)c(Cl)c3)c2cc1OC [Tivozanib] + CC(C)C[C@H](NC(=O)[C@H](Cc1ccccc1)NC(=O)c1cnccn1)B(O)O [Bortezomib] (partner 0.002 µM)', 'relative viability', 1.18),
  ('Nc1ccn([C@@H]2O[C@H](CO)[C@@H](O)[C@@H]2O)c(=O)n1 [Cytarabine] + O=C(c1cc(Cc2n[nH]c(=O)c3ccccc23)ccc1F)N1CCN(C(=O)C2CC2)CC1 [Olaparib] (partner 8 µM)', 'relative viability', 0.522);

Now examine the next entry.
Prompt line: Report relative viability for Nc1ccn([C@@H]2O[C@H](CO)[C@@H](O)[C@@H]2O)c(=O)n1 [Cytarabine] + CS(=O)(=O)N1CCN(Cc2cc3nc(-c4cccc5[nH]ncc45)nc(N4CCOCC4)c3s2)CC1 [Pictilisib] (partner 1 µM) please.
Response line: 0.778

====

tested on: ChaGo-K-1; assay: relative viability (nuclei count vs DMSO), 5 days (fraction); higher = more cells survive; conditions: first compound 0.002 µM
Each entry below lists one item and its recorded relative viability value.

INSERT INTO assay_data (molecule, recordedvalue) VALUES
  ('CC(=O)O[C@@]12CO[C@@H]1C[C@H](O)[C@@]1(C)C(=O)[C@H](O)C3=C(C)[C@@H](OC(=O)[C@H](O)[C@@H](NC(=O)OC(C)(C)C)c4ccccc4)C[C@@](O)([C@@H](OC(=O)c4ccccc4)[C@H]21)C3(C)C [Docetaxel] + COc1cccc2cc(-c3nc([C@H]4CC[C@H](C(=O)O)CC4)n4ncnc(N)c34)[nH]c12 [OSI-027] (partner 0.5 µM)', 0.301),
  ('CC(=O)O[C@@]12CO[C@@H]1C[C@H](O)[C@@]1(C)C(=O)[C@H](O)C3=C(C)[C@@H](OC(=O)[C@H](O)[C@@H](NC(=O)OC(C)(C)C)c4ccccc4)C[C@@](O)([C@@H](OC(=O)c4ccccc4)[C@H]21)C3(C)C [Docetaxel] + COc1cc2c(Oc3ccc(NC(=O)C4(C(=O)Nc5ccc(F)cc5)CC4)cc3F)ccnc2cc1OCCCN1CCOCC1 [Foretinib] (partner 0.25 µM)', 0.439);

Now examine the next entry.
Prompt line: Report relative viability for CC(=O)O[C@@]12CO[C@@H]1C[C@H](O)[C@@]1(C)C(=O)[C@H](O)C3=C(C)[C@@H](OC(=O)[C@H](O)[C@@H](NC(=O)OC(C)(C)C)c4ccccc4)C[C@@](O)([C@@H](OC(=O)c4ccccc4)[C@H]21)C3(C)C [Docetaxel] + O=C(c1cc(Cc2n[nH]c(=O)c3ccccc23)ccc1F)N1CCN(C(=O)C2CC2)CC1 [Olaparib] (partner 8 µM) please.
Response line: 0.285
